- System: 817829-284-R-J1-PDC multi-cell spheroid viability
- assay summary: Anticancer human tumor 817829-284-R-J1-PDC patient-derived colon adenocarcinoma cell line growth inhibition [PI3K]; active = viability on the fitted dose curve at most 10% of control; inactive = the rest
- experimental setup: second compound 0.00316 µM; first compound 10 µM
- Text: Combinatorial screen of targeted agents with the PI3K inhibitors inavolisib, alpelisib, duvelisib, and copanlisib in multi-cell type tumor spheroids A high-throughput screen of multi-cell type tumor spheroids was designed to identify active combinations of targeted small molecules and PI3K pathway inhibitors. […] Compounds. […] If the clinical Cmax for an agent had not been determined, the highest concentration tested was 10 microM. […]
Labels: active, inactive

compound="CCCS(=O)(=O)Nc1ccc(F)c(C(=O)c2c[nH]c3ncc(-c4ccc(Cl)cc4)cc23)c1F + COc1c(OCCCN2CCOCC2)ccc2c3n(c(=NC(=O)c4cnc(N)nc4)nc12)CCN3" class_assignment=inactive
compound="CC(Cn1ccc(-c2ccc(C#N)c(Cl)c2)n1)NC(=O)c1cc(C(C)O)[nH]n1 (stereo not given) + COc1c(OCCCN2CCOCC2)ccc2c3n(c(=NC(=O)c4cnc(N)nc4)nc12)CCN3" class_assignment=inactive
compound="CC1(C)CCC(CN2CCN(c3ccc(C(=O)NS(=O)(=O)c4ccc(NCC5CCOCC5)c([N+](=O)[O-])c4)c(Oc4cnc5[nH]ccc5c4)c3)CC2)=C(c2ccc(Cl)cc2)C1 + COc1c(OCCCN2CCOCC2)ccc2c3n(c(=NC(=O)c4cnc(N)nc4)nc12)CCN3" class_assignment=inactive
compound="CC1(C)CCC(CN2CCN(c3ccc(C(=O)NS(=O)(=O)c4ccc(NCC5CCOCC5)c([N+](=O)[O-])c4)c(Oc4cnc5[nH]ccc5c4)c3)CC2)=C(c2ccc(Cl)cc2)C1 + CC(Nc1ccc2c(c1)OCCn1cc(N3C(=O)OCC3C(F)F)nc1-2)C(N)=O" class_assignment=active
compound="CC(C)NCC(C(=O)N1CCN(c2ncnc3c2C(C)CC3O)CC1)c1ccc(Cl)cc1 (stereo not given) + COc1c(OCCCN2CCOCC2)ccc2c3n(c(=NC(=O)c4cnc(N)nc4)nc12)CCN3" class_assignment=inactive
compound="Cn1nccc1Nc1nccc(-c2ccn(C(CO)c3ccc(Cl)c(F)c3)c(=O)c2)n1 (stereo not given) + CC(Nc1ccc2c(c1)OCCn1cc(N3C(=O)OCC3C(F)F)nc1-2)C(N)=O" class_assignment=inactive
compound="C=CC(=O)N1CCN(c2nc(=O)n(-c3c(C)ccnc3C(C)C)c3nc(-c4c(O)cccc4F)c(F)cc23)C(C)C1 (stereo not given) + CC(Nc1ccc2c(c1)OCCn1cc(N3C(=O)OCC3C(F)F)nc1-2)C(N)=O" class_assignment=inactive
compound="C#Cc1c(F)ccc2cc(O)cc(-c3ncc4c(N5CC6CCC(C5)N6)nc(OCC56CCCN5CC(F)C6)nc4c3F)c12 (stereo not given) + CC(Nc1ccc2c(c1)OCCn1cc(N3C(=O)OCC3C(F)F)nc1-2)C(N)=O" class_assignment=inactive
compound="CNC(=O)c1ccc(N2C(=S)N(c3ccc(C#N)c(C(F)(F)F)c3)C(=O)C2(C)C)cc1F + COc1c(OCCCN2CCOCC2)ccc2c3n(c(=NC(=O)c4cnc(N)nc4)nc12)CCN3" class_assignment=inactive
compound="CC(Cn1ccc(-c2ccc(C#N)c(Cl)c2)n1)NC(=O)c1cc(C(C)O)[nH]n1 (stereo not given) + CC(Nc1ccc2c(c1)OCCn1cc(N3C(=O)OCC3C(F)F)nc1-2)C(N)=O" class_assignment=inactive

----------
- System: 817829-284-R-J1-PDC multi-cell spheroid viability
- assay summary: Anticancer human tumor 817829-284-R-J1-PDC cell line growth inhibition [PI3K]; active = viability on the fitted dose curve at most 10% of control; inactive = the rest;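 also: spheroids exposed to agents for seven days before readout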
- experimental setup: second compound 0.316 µM; first compound 10 µM
Labels: Yes (active), No (inactive)

compound="CC1(C)CCC(CN2CCN(c3ccc(C(=O)NS(=O)(=O)c4ccc(NCC5CCOCC5)c([N+](=O)[O-])c4)c(Oc4cnc5[nH]ccc5c4)c3)CC2)=C(c2ccc(Cl)cc2)C1 + CC(Nc1ccc2c(c1)OCCn1cc(N3C(=O)OCC3C(F)F)nc1-2)C(N)=O" class_assignment=Yes
compound="C=CC(=O)N1CCN(c2nc(=O)n(-c3c(C)ccnc3C(C)C)c3nc(-c4c(O)cccc4F)c(F)cc23)C(C)C1 (stereo not given) + CC(Nc1ccc2c(c1)OCCn1cc(N3C(=O)OCC3C(F)F)nc1-2)C(N)=O" class_assignment=No
compound="C#Cc1c(F)ccc2cc(O)cc(-c3ncc4c(N5CC6CCC(C5)N6)nc(OCC56CCCN5CC(F)C6)nc4c3F)c12 (stereo not given) + COc1c(OCCCN2CCOCC2)ccc2c3n(c(=NC(=O)c4cnc(N)nc4)nc12)CCN3" class_assignment=No
compound="Cn1nccc1Nc1nccc(-c2ccn(C(CO)c3ccc(Cl)c(F)c3)c(=O)c2)n1 (stereo not given) + CC(Nc1ccc2c(c1)OCCn1cc(N3C(=O)OCC3C(F)F)nc1-2)C(N)=O" class_assignment=No
compound="CC1(C)CCC(CN2CCN(c3ccc(C(=O)NS(=O)(=O)c4ccc(NCC5CCOCC5)c([N+](=O)[O-])c4)c(Oc4cnc5[nH]ccc5c4)c3)CC2)=C(c2ccc(Cl)cc2)C1 + COc1c(OCCCN2CCOCC2)ccc2c3n(c(=NC(=O)c4cnc(N)nc4)nc12)CCN3" class_assignment=No
compound="CC(Cn1ccc(-c2ccc(C#N)c(Cl)c2)n1)NC(=O)c1cc(C(C)O)[nH]n1 (stereo not given) + Cc1nc(NC(=O)N2CCCC2C(N)=O)sc1-c1ccnc(C(C)(C)C(F)(F)F)c1" class_assignment=No
compound="Cn1nccc1Nc1nccc(-c2ccn(C(CO)c3ccc(Cl)c(F)c3)c(=O)c2)n1 (stereo not given) + Cc1nc(NC(=O)N2CCCC2C(N)=O)sc1-c1ccnc(C(C)(C)C(F)(F)F)c1" class_assignment=No
compound="CC(Cn1ccc(-c2ccc(C#N)c(Cl)c2)n1)NC(=O)c1cc(C(C)O)[nH]n1 (stereo not given) + COc1c(OCCCN2CCOCC2)ccc2c3n(c(=NC(=O)c4cnc(N)nc4)nc12)CCN3" class_assignment=No
compound="CCCS(=O)(=O)Nc1ccc(F)c(C(=O)c2c[nH]c3ncc(-c4ccc(Cl)cc4)cc23)c1F + COc1c(OCCCN2CCOCC2)ccc2c3n(c(=NC(=O)c4cnc(N)nc4)nc12)CCN3" class_assignment=No
compound="CC1(C)CCC(Nc2ncc(C(F)(F)F)c(-c3c[nH]c4c(P(C)(C)=O)c(C#N)ccc34)n2)CN1 (stereo not given) + Cc1nc(NC(=O)N2CCCC2C(N)=O)sc1-c1ccnc(C(C)(C)C(F)(F)F)c1" class_assignment=No

----------
- Test system: 817829-284-R-J1-PDC multi-cell spheroid viability
- assay summary: Anticancer human tumor 817829-284-R-J1-PDC cell line growth inhibition [PI3K];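 also: spheroids exposed to agents for seven days before readout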
- experimental setup: curve of first compound; second compound 0.1 µM
reported property: IC50 (nM)

molecule="CC1(C)CCC(CN2CCN(c3ccc(C(=O)NS(=O)(=O)c4ccc(NCC5CCOCC5)c([N+](=O)[O-])c4)c(Oc4cnc5[nH]ccc5c4)c3)CC2)=C(c2ccc(Cl)cc2)C1 + Cc1nc(NC(=O)N2CCCC2C(N)=O)sc1-c1ccnc(C(C)(C)C(F)(F)F)c1" reported_property=IC50 result_qualifier== observed_measurement=4250
molecule="C#Cc1c(F)ccc2cc(O)cc(-c3ncc4c(N5CC6CCC(C5)N6)nc(OCC56CCCN5CC(F)C6)nc4c3F)c12 (stereo unspecified) + COc1c(OCCCN2CCOCC2)ccc2c3n(c(=NC(=O)c4cnc(N)nc4)nc12)CCN3" reported_property=IC50 result_qualifier=< observed_measurement=31.6
molecule="C#Cc1c(F)ccc2cc(O)cc(-c3ncc4c(N5CC6CCC(C5)N6)nc(OCC56CCCN5CC(F)C6)nc4c3F)c12 (stereo unspecified) + CC(Nc1ccc2c(c1)OCCn1cc(N3C(=O)OCC3C(F)F)nc1-2)C(N)=O" reported_property=IC50 result_qualifier=> observed_measurement=10000
molecule="CC(C)NCC(C(=O)N1CCN(c2ncnc3c2C(C)CC3O)CC1)c1ccc(Cl)cc1 (stereo unspecified) + Cc1nc(NC(=O)N2CCCC2C(N)=O)sc1-c1ccnc(C(C)(C)C(F)(F)F)c1" reported_property=IC50 result_qualifier== observed_measurement=193
molecule="CC(C)n1nc(-c2ccc3oc(N)nc3c2)c2c(N)ncnc21 + CC(Nc1ncnc2nc[nH]c12)c1cc2cccc(Cl)c2c(=O)n1-c1ccccc1" reported_property=IC50 result_qualifier== observed_measurement=33.9
molecule="CCCS(=O)(=O)Nc1ccc(F)c(C(=O)c2c[nH]c3ncc(-c4ccc(Cl)cc4)cc23)c1F + CC(Nc1ncnc2nc[nH]c12)c1cc2cccc(Cl)c2c(=O)n1-c1ccccc1" reported_property=IC50 result_qualifier== observed_measurement=4210
molecule="CC(Cn1ccc(-c2ccc(C#N)c(Cl)c2)n1)NC(=O)c1cc(C(C)O)[nH]n1 (stereo unspecified) + CC(Nc1ncnc2nc[nH]c12)c1cc2cccc(Cl)c2c(=O)n1-c1ccccc1" reported_property=IC50 result_qualifier== observed_measurement=8490
molecule="Cn1cnc2c(F)c(Nc3ccc(Br)cc3Cl)c(C(=O)NOCCO)cc21 + COc1c(OCCCN2CCOCC2)ccc2c3n(c(=NC(=O)c4cnc(N)nc4)nc12)CCN3" reported_property=IC50 result_qualifier=< observed_measurement=9.49
molecule="Cn1ncc(Cl)c1-c1cc(C(=O)NC(CN)Cc2cccc(F)c2)sc1Cl (stereo unspecified) + CC(Nc1ccc2c(c1)OCCn1cc(N3C(=O)OCC3C(F)F)nc1-2)C(N)=O" reported_property=IC50 result_qualifier== observed_measurement=41.6
molecule="CNC(=O)c1ccc(N2C(=S)N(c3ccc(C#N)c(C(F)(F)F)c3)C(=O)C2(C)C)cc1F + Cc1nc(NC(=O)N2CCCC2C(N)=O)sc1-c1ccnc(C(C)(C)C(F)(F)F)c1" reported_property=IC50 result_qualifier=> observed_measurement=10000
molecule="Cn1ncc(Cl)c1-c1cc(C(=O)NC(CN)Cc2cccc(F)c2)sc1Cl (stereo unspecified) + COc1c(OCCCN2CCOCC2)ccc2c3n(c(=NC(=O)c4cnc(N)nc4)nc12)CCN3" reported_property=IC50 result_qualifier=< observed_measurement=31.6
